tested on: K4 kissing-loop RNA reporter; experiment: apparent KD of K4 kissing-loop reporter; higher = weaker reporter binding; details: Eterna round: R107; input ligand: tryptophan 2.4 mM;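 also: bound reporter read as fluorescence of individual clusters on recovered sequencing chips by microscopy, with normalized cluster intensities fitted with a binding model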
Entries and their measured apparent KD of K4 kissing-loop reporter follow.
Answer with the number, then the unit.

Past entries and their recorded results:
AAGUGAUGUUGUAGUGAUGUUGUGAUGUUGCAGGAUAUAUAGUGAUGUAGAAGGGUAUGUACUUAUUUUUUUUUUGAGUUAUGUU [wzzwzrmullin] ... 0.0633 µM
CCAUCGCUAUUCGAUACCAGUCAUUAAAUCUUUGGUUUAAUAAAGGAGUGAUGUUCCCAAGACCCUUGGCAGCGAAUAGUGAUGG [Theophylline B K4 9] ... 0.207 µM
AGAAGAGUGAUGUUCUUCUAUAUCUCAGAAGGAGCGACAUAAAUGUCAGGUAGGUCGCUGAGAUGAAAUCUCACACAGAUCUUGG [Arg A SS t8] ... 0.109 µM
GAAUUAUGUAGAAGGAGCGUCAGAAGGUAUAGGUGCGAGUGAUGUUUGGACCUGUUAAUUUGACAGGUAGGUCGCUACAGAAGGA [KL-SSArg B20 #analogue] ... 0.32 µM
UUAACCAACAGCGAUACCAGCGUGGAGUGAUGUUCCGAGGAUCGGAGUGAUGUUCCGAAGCGCCCUUGGCAGCGCAGAAGCGCAA [Exclusion Theophylline B GF8] ... 0.255 µM

Would you kindly share the measured apparent KD of K4 kissing-loop reporter for GAUUAAUAAGAGGAUACCAGUACAAAUAAAGUACAUUAAUAGUAGAGUGAUGUUCUAAAGUACCCUUGGCAGCUUAGAGUAAGUU [ExTheophylB.A] ?
0.0944 µM

----------
system: MS2 coat protein; assay: apparent KD of MS2 coat protein; designed switch direction (-1 OFF switch, 1 ON switch): -1; higher = weaker reporter binding; conditions: input ligand: FMN 200 uM
Property: apparent KD of MS2 coat protein (nM)
Enter your answer as a number in nM; do not include the unit.

Past entries and their recorded results:
UUAGUGUUAGGAUAUCCGGCUCCAAGGCACCAAAACCGGGCGGAGAAGGAACAUGAGGAUCACCCAUGUGACCA [Eternabot (Original) Solution 31] (Eterna round: R97, puzzle: Exclusion 4) ... 53.7
CGGAACCAGACAGGAUAUACCUGUCCGAGACAGACACACAUGAGGAUCACCCAUGUUGAUGUCAGGUAGAAGGGUCAUAAAGAC [Eternabot solution 7] (Eterna round: R96, puzzle: Exclusion NG 2) ... 9.86
UAUUGCUGAGGAUAUAUAUAGAGCAUUUUCCUCGUGACAGAACAUGAGGAUCACCCAUGUAGAAGGCAGAAGUG [Eternabot (L2) Solution 87] (Eterna round: R97, puzzle: Exclusion 2) ... 263
CAAAAGCUAGGAUAUACAUGAGGAUCACCCAUGUCGCACUCUAGACACGCCAUACAUAGUAGAAGGAGCAAUCU [EX3 B.18] (Eterna round: R97, puzzle: Exclusion 3) ... 21.7

Now for another entry.
GET /values?readout=apparent KD of MS2 coat protein&system=MS2 coat protein&item= CUGGAGUCAGGAUAUGACGCAGUCCGCCCAAAGGGCGGAAAUCAGAAGGGACUUGAGGAUCACCCAAGUAAAAG [Gecear] (Eterna round: R97, puzzle: Exclusion 4)
28.8
